tested on: Staphylococcus aureus; assay: Antibacterial activity against methicillin-resistant Staphylococcus aureus C14 measured after overnight incubation by broth double-dilution method; format: functional
# log10(MIC) listing for each entry below
// stored as log10 of MIC expressed in µg/mL

INSERT INTO results (cpdsmiles, measvalue) VALUES
  ('Cc1cc(C)cc(-n2sc3ccccc3c2=O)c1', 1.19),
  ('O=c1c2ccccc2sn1-c1ccccn1', 0.89),
  ('COc1cc(OC)cc(-n2sc3ccccc3c2=O)c1', 0.30),
  ('CC(C)Cn1sc2ccccc2c1=O', 0.89),
  ('O=c1c2ccccc2sn1CCCc1ccccc1', 0.59);

Q) Given CC(C)(C)n1sc2ccccc2c1=O , state its recorded log10(MIC).
A) 1.19

Q) Given CCCCCCn1sc2ccccc2c1=O , state its recorded log10(MIC).
A) 0.59

Q) Given O=c1c2ccccc2sn1C1CCCCCC1 , state its recorded log10(MIC).
A) 0.30

Q) Given O=c1c2ccccc2sn1-c1cccc(Br)c1 , state its recorded log10(MIC).
A) 0.89

Q) Given CCCCCn1sc2ccccc2c1=O , state its recorded log10(MIC).
A) 0.59

Q) Given O=c1c2ccccc2sn1C1CCCC1 , state its recorded log10(MIC).
A) 0.59
